Experiment description: Half life of the compound at pH 7.4 at 37 degC by solution stability test
Type: physicochemical
Assay setup: buffer
Measured half-life by item

The following compounds have reported results that may help.
- Molecular string: "CCCNC(=O)c1cn2ncnc(N(C(=O)OCOC(=O)[C@H](C)N)c3cc(C(=O)NC4CC4)ccc3C)c2c1C.Cl.Cl"
  half-life: "< 0.25 h"
- Molecular string: "CCCNC(=O)c1cn2ncnc(Nc3cc(C(=O)N(C(=O)OCOP(=O)(O)O)C4CC4)ccc3C)c2c1C"
  half-life: "< 0.25 h"
- Molecular string: "CCCN(C(=O)OCOP(=O)(O)O)C(=O)c1cn2ncnc(Nc3cc(C(=O)NC4CC4)ccc3C)c2c1C"
  half-life: "< 0.25 h"
- Molecular string: "CCCN(C(=O)OCOC(=O)[C@H](C)N)C(=O)c1cn2ncnc(Nc3cc(C(=O)NC4CC4)ccc3C)c2c1C.Cl.Cl"
  half-life: "< 0.25 h"
- Molecular string: "CCCNC(=O)c1cn2ncnc(N(C(=O)OCOC(=O)/C=C/C(=O)O)c3cc(C(=O)NC4CC4)ccc3C)c2c1C"
  half-life: "14.6 h"

// CCCNC(=O)c1cn2ncnc(N(C(=O)OCOP(=O)(O)O)c3cc(C(=O)NC4CC4)ccc3C)c2c1C : half-life value = < 0.25 h

// CCCNC(=O)c1cn2ncnc(Nc3cc(C(=O)N(C(=O)OCOC(=O)/C=C/C(=O)O)C4CC4)ccc3C)c2c1C : half-life value = 21.8 h

// CCCN(C(=O)OCOC(=O)/C=C/C(=O)O)C(=O)c1cn2ncnc(Nc3cc(C(=O)NC4CC4)ccc3C)c2c1C : half-life value = 38.5 h

// CCCNC(=O)c1cn2ncnc(Nc3cc(C(=O)N(C(=O)OCOC(=O)[C@H](C)N)C4CC4)ccc3C)c2c1C.Cl : half-life value = < 0.25 h
